System: MES-SA/DX5 (multi-drug resistant human uterine sarcoma cell line)
ASSAY_REMARKS: In vitro activity against multi-drug resistant cell line MES-SA/DX5
Assay type: cell-based
PARTICULARS: MES-SA/Dx5, MES-SA/DX-5 MDR cells (Table 2)
PROPERTY_LABEL: IC50 (nM)

[a] CC[C@]1(O)C[C@H]2CN(CCc3c([nH]c4ccccc34)[C@@](C(=O)OC)(c3cc4c(cc3OC)N(C=O)[C@H]3[C@@](O)(C(=O)OC)[C@H](OC(C)=O)[C@]5(CC)C=CCN6CC[C@]43[C@@H]65)C2)C1
[b] Cc1cc(NC(=O)C(=O)c2cc(Cc3ccc(C#N)cc3)n3ccccc23)sn1
Param metric = IC50; output whichever of a , b has the minimum value. Answer format: the label of the selected item.
b
